# SYSTEM NAME: LmUSP (Leishmania major)
# ASSAY TEXT: Bio-layer interferometry (BLI) binding to biotinylated LmUSP on Super Streptavidin biosensors
OBSERVABLE: Kd
Dear colleague, please send the value followed by its unit.

**Query** // lookup Kd for O=c1ccn([C@@H]2O[C@H](COP(=O)(O)OP(=O)(O)OP(=O)(O)O)[C@@H](O)[C@H]2O)c(=O)[nH]1 [UTP, uridine triphosphate, reference compound]
**Result** 89 µM

====

# SYSTEM NAME: hUGP (Homo sapiens, UniProt Q16851)
# Construct: made in house
# Sequence (Q16851 whole entry): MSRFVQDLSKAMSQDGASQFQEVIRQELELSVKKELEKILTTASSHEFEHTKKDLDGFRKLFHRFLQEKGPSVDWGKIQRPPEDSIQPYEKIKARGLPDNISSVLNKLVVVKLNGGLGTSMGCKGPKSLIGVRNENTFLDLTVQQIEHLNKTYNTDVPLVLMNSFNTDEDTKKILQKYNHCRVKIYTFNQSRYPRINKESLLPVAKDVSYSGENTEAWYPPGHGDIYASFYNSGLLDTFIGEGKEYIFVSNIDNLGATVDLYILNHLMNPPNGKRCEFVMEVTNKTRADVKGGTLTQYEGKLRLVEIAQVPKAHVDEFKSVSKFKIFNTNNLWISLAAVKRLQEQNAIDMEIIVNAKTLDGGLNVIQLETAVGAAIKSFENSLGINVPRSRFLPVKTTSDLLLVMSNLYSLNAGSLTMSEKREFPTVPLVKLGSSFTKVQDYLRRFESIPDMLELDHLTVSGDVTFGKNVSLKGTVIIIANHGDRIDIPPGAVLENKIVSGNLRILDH
# ASSAY TEXT: HPLC-based enzyme activity assay, hUGP
# Format: biochemical
# CONDITION PARAMETERS: 500 µM / high compound concentration, 10% DMSO
OBSERVABLE: inhibition of hUGP (in words)

COMPOUND | inhibition of hUGP (in words)
O=C(Cn1c(=O)[nH]c2ccccc2c1=O)NCCc1c[nH]c2ccccc12 [#8] | little effect
O=C(Cn1c(=O)[nH]c2ccccc2c1=O)NCCc1c[nH]c2ccc(Cl)cc12 [#8B] | clear inhibition
O=C(Cn1cnc2ccccc2c1=O)NCCc1c[nH]c2ccc(Cl)cc12 [#8D] | clear inhibition
O=C(Cn1c(=O)[nH]c2ccccc2c1=O)Nc1ccc2[nH]ccc2c1 [#4] | little effect

**Query** // lookup inhibition of hUGP (in words) for O=C(Cn1cnc2ccccc2c1=O)NCCc1c[nH]c2ccc(F)cc12 [#8E]
**Result** clear inhibition
